experiment: Antioxidant activity assessed as inhibition of peroxynitrite-induced oxidation of DHR to rhodamine-123 measured after 2 mins by fluorimetric analysis; format: physicochemical
// boundary case: IC50 equal to 0.6 µM maps to NO; strictly smaller maps to YES

Here's what some known entries look like.
COc1ccc(/C=C/c2oc3c(O)c(O)ccc3c(=O)c2O)cc1OC; YES
O=c1c(O)c(-c2ccc(O)c(O)c2)oc2cc(O)cc(O)c12; NO
COc1ccc(-c2oc3c(O)c(O)ccc3c(=O)c2O)cc1OC; NO
COc1ccc2c(=O)c(O)c(/C=C/c3ccc(O)c(O)c3)oc2c1OC; YES
O=c1c(O)c(/C=C/c2ccc(O)c(O)c2)oc2c(O)c(O)ccc12; YES

API: query returns whether the molecule falls strictly under 0.6 µM in IC50. Query: "O=c1c(O)c(-c2ccc(O)c(O)c2)oc2c(O)c(O)ccc12"
NO

Numbers sourced from ChEMBL document CHEMBL3822436.
